Experiment: MTT-based cytotoxicity
Assay type: cell-based, human
Details: human; MTT assay, A549 lung adenocarcinoma, means ± SEM of three independent experiments
Measured Parameter: IC50 (µM)
Report as a plain number; the unit µM is understood.

Observe how each entry below is paired with its result.
Tell me the measured IC50 of Cc1ccc(CC(=O)NNC(=O)c2ccc(-n3c(C)ccc3C)cc2)cc1 [Compound 5c] , please.
219

Tell me the measured IC50 of Cc1ccc(C)n1-c1ccc(C(=O)NNC(=O)Cc2ccc(F)cc2)cc1 [Compound 5k] , please.
219

Tell me the measured IC50 of Cc1ccc(C)n1-c1ccc(C(=O)NNC(=O)Cc2ccc(Br)cc2)cc1 [Compound 5i] , please.
214

Tell me the measured IC50 of Cc1ccc(C)n1-c1ccc(C(=O)NNC(=O)Cc2ccc(Cl)cc2)cc1 [Compound 5f] , please.
216

New cases:
Tell me the measured IC50 of COc1ccc(CC(=O)NNC(=O)c2ccc(-n3c(C)ccc3C)cc2)cc1 [Compound 5d] , please.
214

----------
The next entries give measured log10(IC50) for MtDHFR (Mycobacterium tuberculosis).
Transform log10 | Measure IC50 | Unit µM

Tell me the measured log10(IC50) of COc1ccccc1CC(=O)NNC(=O)c1ccc(-n2c(C)ccc2C)cc1 [Compound 5e] , please.
1.89

Tell me the measured log10(IC50) of Cc1ccc(C)n1-c1ccc(C(=O)NNC(=O)Cc2ccc(F)cc2)cc1 [Compound 5k] , please.
1.00

Tell me the measured log10(IC50) of Cc1ccc(C)n1-c1ccc(C(=O)NNC(=O)Cc2ccccc2Cl)cc1 [Compound 5g] , please.
1.41

Tell me the measured log10(IC50) of Cc1ccccc1CC(=O)NNC(=O)c1ccc(-n2c(C)ccc2C)cc1 [Compound 5b] , please.
2.10

New cases:
Tell me the measured log10(IC50) of Cc1ccc(C)n1-c1ccc(C(=O)NNC(=O)Cc2ccc(O)cc2)cc1 [Compound 5l] , please.
1.48

----------
Test: MTT-based cytotoxicity
Type: cell-based
Settings: African green monkey; MTT assay, Mammalian Vero cell lines, means ± SEM of three independent experiments; read-out: IC50 MV Cell Lines (cytotoxicity)
Measured Parameter: IC50 (µM)
Report as a plain number; the unit µM is understood.

Tell me the measured IC50 of `Cc1ccc(C)n1-c1ccc(C(=O)NNC(=O)Cc2ccc(Cl)cc2)cc1` , please.
215

----------
The next entries give measured MIC for E. coli (Gram −ve).
Report as a plain number; the unit µg/mL is understood.

Tell me the measured MIC of `Cc1ccc(C)n1-c1ccc(C(=O)NNC(=O)Cc2ccc(O)cc2)cc1` , please.
50

Tell me the measured MIC of `COc1ccc(CC(=O)NNC(=O)c2ccc(-n3c(C)ccc3C)cc2)cc1` , please.
100

Tell me the measured MIC of `Cc1ccc(C)n1-c1ccc(C(=O)NNC(=O)Cc2ccc([N+](=O)[O-])cc2)cc1` , please.
50

Tell me the measured MIC of `Cc1ccccc1CC(=O)NNC(=O)c1ccc(-n2c(C)ccc2C)cc1` , please.
50

New cases:
Tell me the measured MIC of `Cc1ccc(C)n1-c1ccc(C(=O)NNC(=O)Cc2ccccc2Cl)cc1` , please.
50

Tell me the measured MIC of `Cc1ccc(C)n1-c1ccc(C(=O)NNC(=O)Cc2ccccc2)cc1` , please.
50

Tell me the measured MIC of `Cc1ccc(C)n1-c1ccc(C(=O)NNC(=O)Cc2ccccc2Br)cc1` , please.
50

Tell me the measured MIC of `Cc1ccc(C)n1-c1ccc(C(=O)NNC(=O)Cc2cccc(Cl)c2)cc1` , please.
50

Tell me the measured MIC of `Cc1ccc(C)n1-c1ccc(C(=O)NNC(=O)Cc2ccc(F)cc2)cc1` , please.
50

Tell me the measured MIC of O=C(O)c1cn(C2CC2)c2cc(N3CCNCC3)c(F)cc2c1=O [Ciprofloxacin, reference compound] , please.
2

Tell me the measured MIC of `Cc1ccc(C)n1-c1ccc(C(=O)NNC(=O)Cc2cccc(Br)c2)cc1` , please.
50

Tell me the measured MIC of `Cc1ccc(C)n1-c1ccc(C(=O)NNC(=O)Cc2ccc(Br)cc2)cc1` , please.
50

Tell me the measured MIC of `COc1ccccc1CC(=O)NNC(=O)c1ccc(-n2c(C)ccc2C)cc1` , please.
100

Tell me the measured MIC of `Cc1ccc(CC(=O)NNC(=O)c2ccc(-n3c(C)ccc3C)cc2)cc1` , please.
50

Tell me the measured MIC of `Cc1ccc(C)n1-c1ccc(C(=O)NNC(=O)Cc2ccc(Cl)cc2)cc1` , please.
50
